Catalogue of self-cleavage kobs at 640 uM GlcN6P values
B1: glmS ribozyme (parent)
chain: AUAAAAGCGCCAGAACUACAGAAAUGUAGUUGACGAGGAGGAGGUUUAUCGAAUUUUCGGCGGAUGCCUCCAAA

# Variants of: B1
# MEASUREMENT PROTOCOL: self-cleavage kobs at 640 uM GlcN6P; higher = faster cleavage; RNA array
# APPLIED CONDITIONS: with glucosamine-6-phosphate
This sample holds only a part of the variants without activity.
Give the quantity in s⁻¹, number only.

Prompt: Please report the measured self-cleavage kobs at 640 uM GlcN6P for A53U U56A C71U
Response: 0.00121

Prompt: Please report the measured self-cleavage kobs at 640 uM GlcN6P for C10U A12U A33U A53G C58U U69G
Response: 0.000216
